target or system: Inhibitor of nuclear factor kappa-B kinase subunit beta (Homo sapiens)
Sequence (O14920 whole entry): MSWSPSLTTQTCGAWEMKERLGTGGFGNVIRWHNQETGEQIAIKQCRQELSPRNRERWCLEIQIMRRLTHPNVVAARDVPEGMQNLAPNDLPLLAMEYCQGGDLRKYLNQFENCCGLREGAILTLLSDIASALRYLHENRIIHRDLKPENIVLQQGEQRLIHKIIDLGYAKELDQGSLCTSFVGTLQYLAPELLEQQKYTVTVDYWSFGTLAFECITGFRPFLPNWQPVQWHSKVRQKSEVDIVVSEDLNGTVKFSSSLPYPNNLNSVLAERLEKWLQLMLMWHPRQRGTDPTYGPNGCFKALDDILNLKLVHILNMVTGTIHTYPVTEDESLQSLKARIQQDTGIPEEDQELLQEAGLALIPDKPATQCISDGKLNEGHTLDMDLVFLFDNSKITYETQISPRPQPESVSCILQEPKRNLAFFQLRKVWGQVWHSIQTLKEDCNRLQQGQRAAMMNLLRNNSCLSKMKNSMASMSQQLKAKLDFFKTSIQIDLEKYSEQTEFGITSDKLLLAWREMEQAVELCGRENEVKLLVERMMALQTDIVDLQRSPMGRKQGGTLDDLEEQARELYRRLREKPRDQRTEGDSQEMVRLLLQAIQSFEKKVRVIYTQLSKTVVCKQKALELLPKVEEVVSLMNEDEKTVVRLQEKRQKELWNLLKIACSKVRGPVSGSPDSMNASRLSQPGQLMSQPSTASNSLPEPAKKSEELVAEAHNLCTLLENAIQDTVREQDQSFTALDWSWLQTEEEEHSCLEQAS
procedure details: Inhibition of IKK-beta expressed in human HeLa cells transfected with pNFkappaB-luciferase assessed inhibition of TNF-alpha-induced NF-kappaB expression by luciferase reporter gene assay
Format: cell-based
parameter measured: IC50 (nM)

Example entries and their recorded answers appear below.
O=S(=O)(NCCO)c1ccc(Nc2ncc3c(n2)-c2ccsc2CC3)cc1	1960
NS(=O)(=O)c1ccc(Nc2nccc(-c3ccc(NC(=O)Cc4ccccc4)cc3)n2)cc1	4470
NS(=O)(=O)c1ccc(Nc2ncc3c(n2)-c2ccc(NC(=O)C4CCCC4)cc2CC3)cc1	1570
CC(C)CC(=O)Nc1ccc2c(c1)CCc1cnc(Nc3ccc(S(N)(=O)=O)cc3)nc1-2	6400
CC(C)=CC(=O)Nc1ccc2c(c1)CCc1cnc(Nc3ccc(S(N)(=O)=O)cc3)nc1-2	8250

(1) NS(=O)(=O)c1ccc(Nc2ncc3c(n2)-c2ccc(NC(=O)Cc4cccs4)cc2CC3)cc1
(2) NS(=O)(=O)c1ccc(Nc2ncc3c(n2)-c2ccc(NC(=O)Cc4ccccc4)cc2CC3)cc1
Form field 'greater IC50' accepts 1 or 2 ; which applies? Indicate which entry you chose by stating its label.
2
(2: 1790 nM, 1: 830 nM)

Source: ChEMBL document CHEMBL1155535
